Values were extracted from ChEMBL document CHEMBL1137034.

biological target: Geranylgeranyl transferase type I (Bos taurus, UniProt P29702+Q5EAD5); assay: Inhibition of [3H]FPP incorporation into biotin-linked K-ras decapeptide (CVLL) by bovine geranylgeranyltransferase; assay type: protein-complex assay
pIC50: −log10 of the molar value.
QUANTITY_MEASURED: pIC50

Prompt line: Dear colleague, please send me the reported pIC50 for Cn1cncc1C(OCc1cn(Cc2ccc(C#N)cc2)c(=O)cc1-c1cccc(Cl)c1)c1ccc(C#N)cc1 (stereo unspecified) when you can.
Response line: < 5.00

----------
test: Plasma clearance was determined; format: ADME, organism-based, Canis lupus familiaris; details: dog, in vivo
QUANTITY_MEASURED: Plasma clearance (mL/min/kg)
Provide only the numeric value, understood in mL/min/kg.

Prompt line: Dear colleague, please send me the reported Plasma clearance for Cn1cncc1C(OCc1cn(Cc2cccc(C#N)c2)c(=O)cc1-c1cccc(Cl)c1)c1ccc(C#N)cc1 (stereo unspecified) when you can.
Response line: 8.83

----------
assay: Oral bioavailability in dog; type: ADME, organism-based, Canis lupus familiaris; conditions: in vivo
QUANTITY_MEASURED: bioavailability (%)
Provide only the numeric value, understood in %.

Prompt line: Dear colleague, please send me the reported bioavailability for Cn1cncc1C(OCc1cn(Cc2cccc(C#N)c2)c(=O)cc1-c1cccc(Cl)c1)c1ccc(C#N)cc1 (stereo unspecified) when you can.
Response line: 47

----------
target: Geranylgeranyl transferase type I (Bos taurus, UniProt P29702+Q5EAD5); experiment: inhibitory concentration needed to reduce the bovine GGTase-catalyzed incorporation of […] into a biotin-linked K-ras (B) decapeptide; type: protein-complex assay
QUANTITY_MEASURED: pIC50
The scale used: pIC50 is minus the common logarithm of the concentration in molar units.

Prompt line: Dear colleague, please send me the reported pIC50 for Cn1cncc1C(OCc1c(-c2cccc(Cl)c2)cc(C#N)c(=O)n1C)c1ccc(C#N)cc1 (stereo not drawn) when you can.
Response line: 8.57

Prompt line: Dear colleague, please send me the reported pIC50 for Cn1cncc1C(OCc1ccc(C#N)cc1-c1cccc(Cl)c1)c1ccc(C#N)cc1 (stereo not drawn) when you can.
Response line: 8.89

Prompt line: Dear colleague, please send me the reported pIC50 for Cn1cncc1C(OCc1c(-c2cc(Cl)cc(Cl)c2)cc(C#N)n(C)c1=O)c1ccc(C#N)cc1 (stereo not drawn) when you can.
Response line: 5.03

Prompt line: Dear colleague, please send me the reported pIC50 for Cn1cncc1C(OCc1cn(Cc2cccc(C#N)c2)c(=O)cc1-c1cccc(Cl)c1)c1ccc(C#N)cc1 (stereo not drawn) when you can.
Response line: 5.72

Prompt line: Dear colleague, please send me the reported pIC50 for Cn1cncc1C(OCc1cn(Cc2cccc(Cl)c2)c(=O)cc1-c1cccc(Cl)c1)c1ccc(C#N)cc1 (stereo not drawn) when you can.
Response line: 5.92

Prompt line: Dear colleague, please send me the reported pIC50 for Cn1cncc1C(OCc1cn(Cc2cccc(F)c2)c(=O)cc1-c1cccc(Cl)c1)c1ccc(C#N)cc1 (stereo not drawn) when you can.
Response line: 5.70

Prompt line: Dear colleague, please send me the reported pIC50 for Cn1cncc1C(OCc1c[nH]c(=O)cc1-c1cccc(Cl)c1)c1ccc(C#N)cc1 (stereo not drawn) when you can.
Response line: 5.21

Prompt line: Dear colleague, please send me the reported pIC50 for Cn1cncc1C(OCc1cn(Cc2cccnc2Br)c(=O)cc1-c1cccc(Cl)c1)c1ccc(C#N)cc1 (stereo not drawn) when you can.
Response line: 5.18

Prompt line: Dear colleague, please send me the reported pIC50 for Cn1cncc1C(OCc1c(-c2cccc(C(F)(F)F)c2)cc(C#N)n(C)c1=O)c1ccc(C#N)cc1 (stereo not drawn) when you can.
Response line: 5.44

Prompt line: Dear colleague, please send me the reported pIC50 for Cn1cncc1C(OCc1cn(Cc2ccccc2C#N)c(=O)cc1-c1cccc(Cl)c1)c1ccc(C#N)cc1 (stereo not drawn) when you can.
Response line: 5.11

----------
assay: Half life in dog; format: ADME, Canis lupus familiaris; conditions: in vivo
QUANTITY_MEASURED: half-life (h)
Provide only the numeric value, understood in h.

Prompt line: Dear colleague, please send me the reported half-life for Cn1cncc1C(OCc1cn(Cc2cccc(C#N)c2)c(=O)cc1-c1cccc(Cl)c1)c1ccc(C#N)cc1 (stereo unspecified) when you can.
Response line: 1.4

----------
biological target: Protein farnesyltransferase (Mus musculus, UniProt Q61239+Q8K2I1); experiment: Reduced farnesylation of H-ras transformed NIH3T3 cells
Exercise: for every item that follows, state its recorded pEC50.
The scale used: pEC50 is minus the common logarithm of the concentration in molar units.

Prompt line: Please tell me the measured pEC50 for Cn1cncc1C(OCc1cn(Cc2cccc(Cl)c2)c(=O)cc1-c1cccc(Cl)c1)c1ccc(C#N)cc1 (configuration not stated) ; system: Protein farnesyltransferase (Mus musculus, UniProt Q61239+Q8K2I1).
Response line: 8.00

Prompt line: Please tell me the measured pEC50 for Cn1cncc1C(OCc1cn(Cc2cccc(F)c2)c(=O)cc1-c1cccc(Cl)c1)c1ccc(C#N)cc1 (configuration not stated) ; system: Protein farnesyltransferase (Mus musculus, UniProt Q61239+Q8K2I1).
Response line: 7.82

Prompt line: Please tell me the measured pEC50 for Cn1cncc1C(OCc1c(-c2cccc(Cl)c2)cc(C#N)n(C)c1=O)c1ccc(C#N)cc1 (configuration not stated) ; system: Protein farnesyltransferase (Mus musculus, UniProt Q61239+Q8K2I1).
Response line: 7.94

Prompt line: Please tell me the measured pEC50 for Cn1cncc1C(OCc1c(-c2cccc(Cl)c2)cc(C#N)c(=O)n1C)c1ccc(C#N)cc1 (configuration not stated) ; system: Protein farnesyltransferase (Mus musculus, UniProt Q61239+Q8K2I1).
Response line: 9.30

Prompt line: Please tell me the measured pEC50 for Cn1cncc1C(OCc1ccc(C#N)cc1-c1cccc(Cl)c1)c1ccc(C#N)cc1 (configuration not stated) ; system: Protein farnesyltransferase (Mus musculus, UniProt Q61239+Q8K2I1).
Response line: 8.28

Prompt line: Please tell me the measured pEC50 for Cn1cncc1C(OCc1cn(Cc2cccc(C#N)c2)c(=O)cc1-c1cccc(Cl)c1)c1ccc(C#N)cc1 (configuration not stated) ; system: Protein farnesyltransferase (Mus musculus, UniProt Q61239+Q8K2I1).
Response line: 8.05

Prompt line: Please tell me the measured pEC50 for Cn1cncc1C(OCc1c(-c2cc(Cl)cc(Cl)c2)cc(C#N)n(C)c1=O)c1ccc(C#N)cc1 (configuration not stated) ; system: Protein farnesyltransferase (Mus musculus, UniProt Q61239+Q8K2I1).
Response line: 7.82

----------
Exercise: for every item that follows, state its recorded pIC50.
test: Inhibition of [3H]FPP incorporation into biotin-linked K-ras decapeptide (CVIM) by bovine farnesyltransferase; set-up: species or system Bos taurus
The scale used: pIC50 is minus the common logarithm of the concentration in molar units.

Prompt line: Dear colleague, please send me the reported pIC50 for Cn1cncc1C(OCc1c(-c2cc(Cl)cc(Cl)c2)cc(C#N)n(C)c1=O)c1ccc(C#N)cc1 (configuration not stated) when you can.
Response line: 8.96

Prompt line: Dear colleague, please send me the reported pIC50 for Cn1cncc1C(OCc1cn(C)c(=O)cc1-c1cccc(Cl)c1)c1ccc(C#N)cc1 (configuration not stated) when you can.
Response line: 7.92

Prompt line: Dear colleague, please send me the reported pIC50 for Cn1cncc1C(OCc1cn(Cc2cccc(C#N)c2)c(=O)cc1-c1cccc(Cl)c1)c1ccc(C#N)cc1 (configuration not stated) when you can.
Response line: 8.89

Prompt line: Dear colleague, please send me the reported pIC50 for Cn1cncc1C(OCc1c(-c2cccc(C(F)(F)F)c2)cc(C#N)n(C)c1=O)c1ccc(C#N)cc1 (configuration not stated) when you can.
Response line: 8.12

Prompt line: Dear colleague, please send me the reported pIC50 for Cn1cncc1C(OCc1cn(Cc2cccc(Cl)c2)c(=O)cc1-c1cccc(Cl)c1)c1ccc(C#N)cc1 (configuration not stated) when you can.
Response line: 8.68

Prompt line: Dear colleague, please send me the reported pIC50 for Cn1cncc1C(OCc1cn(Cc2cccc(F)c2)c(=O)cc1-c1cccc(Cl)c1)c1ccc(C#N)cc1 (configuration not stated) when you can.
Response line: 8.68

Prompt line: Dear colleague, please send me the reported pIC50 for Cn1cncc1C(OCc1cn(CC#N)c(=O)cc1-c1cccc(Cl)c1)c1ccc(C#N)cc1 (configuration not stated) when you can.
Response line: 7.72

Prompt line: Dear colleague, please send me the reported pIC50 for Cn1cncc1C(OCc1cn(Cc2ccccc2C#N)c(=O)cc1-c1cccc(Cl)c1)c1ccc(C#N)cc1 (configuration not stated) when you can.
Response line: 8.64

Prompt line: Dear colleague, please send me the reported pIC50 for Cn1cncc1C(OCc1c(-c2cccc(Cl)c2)cc(C#N)n(C)c1=O)c1ccc(C#N)cc1 (configuration not stated) when you can.
Response line: 8.92

Prompt line: Dear colleague, please send me the reported pIC50 for Cn1cncc1C(OCc1cn(Cc2cccnc2Br)c(=O)cc1-c1cccc(Cl)c1)c1ccc(C#N)cc1 (configuration not stated) when you can.
Response line: 8.52

Prompt line: Dear colleague, please send me the reported pIC50 for Cn1cncc1C(OCc1ccc(C#N)cc1-c1cccc(Cl)c1)c1ccc(C#N)cc1 (configuration not stated) when you can.
Response line: 9.06

Prompt line: Dear colleague, please send me the reported pIC50 for Cn1cncc1C(OCc1c(-c2cccc(Cl)c2)cc(C#N)c(=O)n1C)c1ccc(C#N)cc1 (configuration not stated) when you can.
Response line: 9.36
